# Test system: NCI-H226 lung
# Experiment Notes: NCI tumour cell line growth inhibition, 48 h
Reported TGI values are given for each entry in this list.

Take a look at these entries with their results.
Compound	TGI
Cc1ccc(C)c2sc3cc(=O)ccc-3nc12	> 100 µM
COc1cc(SC)ccc1C(=O)N1CCCC(C)C1 (centres undefined)	> 100 µM
CC(=O)OCC1OC(O[C@@H]2C[C@H]3C(C)(C)[C@H](OC(C)=O)CC[C@]3(C)[C@H]3CC[C@@H]4[C@]5(CC[C@@]4(C)[C@@]32C)O[C@@H]([C@H](O)C(C)(C)O)C[C@@H]5C)C(O)C(O)C1O (some centres undefined)	28.2 µM

// returns reported TGI for input CC(CN(C)C)C(O)(c1ccccc1)c1ccccc1 (centres undefined)
> 100 µM

// returns reported TGI for input `CCSc1nn(-c2c3ccccc3nc3ccccc23)c(=S)s1`
> 100 µM

// returns reported TGI for input NC(=NC1C2CC3CC(C2)CC1C3)Nc1ccc(I)cc1 (centres undefined)
22.2 µM

// returns reported TGI for input `NC(=O)c1ccc(NC(=O)c2oc3ccccc3c2-c2cnn(-c3ccccc3)c2)cc1`
> 100 µM

// returns reported TGI for input CC1=C(C(=O)OC(C)C)C(c2cccc([N+](=O)[O-])c2)C(C(=O)OC(CO[N+](=O)[O-])CO[N+](=O)[O-])=C(C)N1 (centres undefined)
30.6 µM

// returns reported TGI for input `Cc1nc2ccccc2n1CCc1nc2ccccc2[nH]1`
> 100 µM
